# Tested target: Cytochrome P450 3A4 (Homo sapiens)
# Sequence (P08684 whole entry): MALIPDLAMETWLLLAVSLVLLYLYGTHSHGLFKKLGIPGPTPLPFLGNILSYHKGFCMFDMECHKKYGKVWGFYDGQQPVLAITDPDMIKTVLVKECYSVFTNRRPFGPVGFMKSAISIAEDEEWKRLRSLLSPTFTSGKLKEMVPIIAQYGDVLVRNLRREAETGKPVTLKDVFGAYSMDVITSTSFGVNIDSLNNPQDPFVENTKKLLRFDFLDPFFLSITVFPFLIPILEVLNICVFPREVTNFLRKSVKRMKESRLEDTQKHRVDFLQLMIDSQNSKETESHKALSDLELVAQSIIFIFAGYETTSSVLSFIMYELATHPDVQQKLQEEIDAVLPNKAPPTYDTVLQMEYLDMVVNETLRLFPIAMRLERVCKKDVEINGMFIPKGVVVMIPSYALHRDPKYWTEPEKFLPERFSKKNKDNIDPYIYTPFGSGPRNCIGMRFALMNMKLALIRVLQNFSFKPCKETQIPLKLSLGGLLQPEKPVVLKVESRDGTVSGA
pIC50: −log10 of the molar value.
Readout type: pIC50

Would you mind telling me what pIC50 value was observed for CC(C)n1nc(-c2cc(C3CC3)on2)c2c(N)ncnc21 ?
< 4.52

====

# Test: Cytotoxicity against human Nthy-ori 3-1 cells after 10 days by MTT assay
# Type: cell-based
Checkbox rule: GI50 at 240 h lower than 10 µM = Fulfilled; GI50 at 240 h not lower than 10 µM = Not fulfilled.

>>> assigned_category("Nc1ncnc2c1c(-c1cc(C3CC3)on1)nn2C1CCOCC1")
"Not fulfilled"
>>> assigned_category("CC(C)n1nc(-c2ccon2)c2c(N)ncnc21")
"Not fulfilled"
>>> assigned_category("CC(C)(O)Cn1nc(-c2cc(C3CC3)on2)c2c(N)ncnc21")
"Fulfilled"

Strictly below 10 µM: is that where GI50 at 240 h of CC(C)n1nc(-c2cc(C3CC3)on2)c2c(N)ncnc21 sits?
Not fulfilled

Please check: GI50 at 240 h for CCCCCCCn1nc(-c2cc(C3CC3)on2)c2c(N)ncnc21 , strictly under 10 µM or not?
Not fulfilled
